B1: NF2 (merlin) isoform 7, human, full length (507 aa, lacks exons 2-3 = isoform-1 residues 39-121; exon-16 C-terminus), P35240-4 (parent)
chain: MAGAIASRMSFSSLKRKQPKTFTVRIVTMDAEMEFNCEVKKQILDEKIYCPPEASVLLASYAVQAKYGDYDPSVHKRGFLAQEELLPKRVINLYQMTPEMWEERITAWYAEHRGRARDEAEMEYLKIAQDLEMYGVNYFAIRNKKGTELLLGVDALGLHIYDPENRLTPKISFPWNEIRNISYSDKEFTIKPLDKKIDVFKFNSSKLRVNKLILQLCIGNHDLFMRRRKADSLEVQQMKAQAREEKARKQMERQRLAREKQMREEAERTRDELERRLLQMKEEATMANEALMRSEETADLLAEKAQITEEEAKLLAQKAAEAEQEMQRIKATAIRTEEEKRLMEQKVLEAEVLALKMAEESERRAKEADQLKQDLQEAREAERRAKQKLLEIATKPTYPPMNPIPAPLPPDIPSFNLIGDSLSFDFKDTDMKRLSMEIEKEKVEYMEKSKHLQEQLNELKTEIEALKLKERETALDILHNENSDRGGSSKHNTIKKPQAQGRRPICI

variants of: B1; test: reverse yeast two-hybrid deep mutational scan (rY2H-seq): NF2 isoform 7 mutant library as bait mated with wild-type prey strains; selection on medium lacking adenine for non-interacting pairs; NextSeq paired-end sequencing; enrichment vs …; conditions: with KDM1A (lysine-specific histone demethylase 1A; the table's label AOF2 is a gene synonym of KDM1A), O60341; yeast diploids after mating (RBait_S3 x RPrey_S3), 30 °C, selection for reporter genes on NB agar; human ABL2 co-expressed as the kinase-dead K35M mutant …; HIGHER = WEAKER BINDING (the opposite of display enrichments): higher = stronger loss of interaction: reverse Y2H selects yeast in which bait and prey do NOT interact (growth without adenine), so a …; hits-only table; scale: rY2H score; numbering: uniprot, sequence starts at 1
Documented enrichment across a set of variants
READOUT: enrichment

[[record]]
mutation = "Q345L"
quantitative_readout = 3.2

[[record]]
mutation = "Q250L"
quantitative_readout = 2.08

[[record]]
mutation = "K66A"
quantitative_readout = 3.6

[[record]]
mutation = "H159P"
quantitative_readout = 1.84

[[record]]
mutation = "L342E"
quantitative_readout = 4.91

[[record]]
mutation = "T308K"
quantitative_readout = 2.96

[[record]]
mutation = "E360G"
quantitative_readout = 1.54

[[record]]
mutation = "P409A"
quantitative_readout = 4.62

[[record]]
mutation = "T473L"
quantitative_readout = 8.75

[[record]]
mutation = "P504R"
quantitative_readout = 2

[[record]]
mutation = "A365L"
quantitative_readout = 2.1

[[record]]
mutation = "A290V"
quantitative_readout = 1.65

[[record]]
mutation = "Y67A"
quantitative_readout = 3.02

[[record]]
mutation = "K211I"
quantitative_readout = 5.27

[[record]]
mutation = "R384E"
quantitative_readout = 2.89

[[record]]
mutation = "D430L"
quantitative_readout = 3.75

[[record]]
mutation = "N457S"
quantitative_readout = 3.38

[[record]]
mutation = "P163L"
quantitative_readout = 7.24

[[record]]
mutation = "E338A"
quantitative_readout = 2.42

[[record]]
mutation = "E123D"
quantitative_readout = 1.75

[[record]]
mutation = "E325L"
quantitative_readout = 5.66

[[record]]
mutation = "D71K"
quantitative_readout = 5.71

